pIC50: −log10 of the molar value.
// read-out pIC50, gathered for Methionine aminopeptidase 2 (Homo sapiens) from published studies

Below, 7 compounds whose answers are already recorded.
Compound: CC(C)(C)OC(=O)N[C@@H](CCC(N)=O)C(=O)N1CCc2cccc(OC[C@H]3CCCN3c3ncnc4[nH]cnc34)c2C1
Readout Kind: pIC50
Result: 5.00 to 6.00

Compound: O=CN1CCN(c2ccc3cccc(OC[C@H]4CCCN4c4ncnc5[nH]cnc45)c3c2)CC1
Readout Kind: pIC50
Result: 6.00 to 8.00

Compound: O=C(NCc1ccc(C(F)(F)F)cc1)[C@@]1(O)CCN(c2ccccc2)C1=O
Readout Kind: pIC50
Result: < 5.00

Compound: N[C@@H](Cc1c[nH]cn1)C(=O)N1CCc2cccc(OC[C@H]3CCCN3c3ncnc4[nH]cnc34)c2C1
Readout Kind: pIC50
Result: 6.00 to 8.00

Compound: O=C1/C(=C\c2cc[nH]n2)CCc2c(OC[C@H]3CCCN3c3ncnc4[nH]cnc34)cccc21
Readout Kind: pIC50
Result: 6.00 to 8.00

Compound: O=C(NCc1cccc(N2CCCC2)n1)[C@@]1(O)CCN(c2ccccc2)C1=O
Readout Kind: pIC50
Result: < 5.00

Compound: O=C(NCc1cc(F)cc(Cl)c1)[C@@]1(O)CCN(c2cnc3[nH]cc(C(F)(F)F)c3c2)C1=O
Readout Kind: pIC50
Result: 6.00 to 8.00

Please examine the following record next.
Any idea what pIC50 came out for O=C1OCCC1CCOc1ccc2cccc(OC[C@H]3CCCN3c3ncnc4[nH]cnc34)c2c1 (some centres unmarked) on Methionine aminopeptidase 2 (Homo sapiens)?
5.00 to 6.00
